# system under test: Protein arginine N-methyltransferase 8 (Homo sapiens, UniProt Q9NR22)
# Sequence (Q9NR22 2-394 limits assumed): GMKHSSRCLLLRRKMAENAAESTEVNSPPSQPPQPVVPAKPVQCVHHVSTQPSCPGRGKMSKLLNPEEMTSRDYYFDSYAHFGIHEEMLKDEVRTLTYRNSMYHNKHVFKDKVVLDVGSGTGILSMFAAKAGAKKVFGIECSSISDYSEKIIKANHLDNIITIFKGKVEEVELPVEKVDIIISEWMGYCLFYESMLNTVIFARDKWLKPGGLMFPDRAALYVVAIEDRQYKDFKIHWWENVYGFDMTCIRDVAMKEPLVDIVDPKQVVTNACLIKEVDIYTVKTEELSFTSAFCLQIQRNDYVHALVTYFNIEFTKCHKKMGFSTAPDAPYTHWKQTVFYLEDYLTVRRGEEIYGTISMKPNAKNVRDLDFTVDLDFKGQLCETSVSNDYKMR
# experimental protocol: Inhibition of human PRMT8 using Histone H4 as substrate and SAM as cofactor at 10 uM by radiometric HotSpot assay relative to control
Each entry below carries its reported inhibition.

{"smiles notation": "Nc1ncnc2c1ncn2[C@@H]1O[C@H](CSCCOc2ccc(-c3ccccc3O)cc2)[C@@H](O)[C@H]1O", "inhibition": "< 50%"}
{"smiles notation": "Nc1ncnc2c1ncn2[C@@H]1O[C@H](CSCCNCc2cccc(Br)c2)[C@@H](O)[C@H]1O", "inhibition": "> 50%"}

Identify measured inhibition corresponding to Nc1ncnc2c1ncn2[C@@H]1O[C@H](CSCCNCc2cccc(-c3ccncc3)c2)[C@@H](O)[C@H]1O
> 50%

Quickly give me recorded inhibition for N=C(NCCCSC[C@H]1O[C@@H](n2cnc3c(NCCCc4ccccc4)ncnc32)[C@H](O)[C@@H]1O)Nc1ccccc1
70%

Retrieve inhibition measured for Nc1ncnc2c1ncn2[C@@H]1O[C@H](CSCCNCc2cccc(-c3ccc(O)cc3)c2)[C@@H](O)[C@H]1O and print it.
> 50%

Supply inhibition value. Item: Nc1ncnc2c1ncn2[C@@H]1O[C@H](CSCCNC(=O)NCCCc2ccccc2)[C@@H](O)[C@H]1O
< 30%

Read off the recorded inhibition for N=C(NCCSC[C@H]1O[C@@H](n2cnc3c(N)ncnc32)[C@H](O)[C@@H]1O)Nc1cccc(-c2cccc(F)c2)c1
> 95%

Return inhibition for the following molecule: Nc1ncnc2c1ncn2[C@@H]1O[C@H](CSCCCNC(=O)NCCCc2ccccc2)[C@@H](O)[C@H]1O
< 30%

###

IC50 listing for selected molecules.
# system under test: Protein arginine N-methyltransferase 7 (Homo sapiens)
# Sequence (Q9NVM4 whole entry): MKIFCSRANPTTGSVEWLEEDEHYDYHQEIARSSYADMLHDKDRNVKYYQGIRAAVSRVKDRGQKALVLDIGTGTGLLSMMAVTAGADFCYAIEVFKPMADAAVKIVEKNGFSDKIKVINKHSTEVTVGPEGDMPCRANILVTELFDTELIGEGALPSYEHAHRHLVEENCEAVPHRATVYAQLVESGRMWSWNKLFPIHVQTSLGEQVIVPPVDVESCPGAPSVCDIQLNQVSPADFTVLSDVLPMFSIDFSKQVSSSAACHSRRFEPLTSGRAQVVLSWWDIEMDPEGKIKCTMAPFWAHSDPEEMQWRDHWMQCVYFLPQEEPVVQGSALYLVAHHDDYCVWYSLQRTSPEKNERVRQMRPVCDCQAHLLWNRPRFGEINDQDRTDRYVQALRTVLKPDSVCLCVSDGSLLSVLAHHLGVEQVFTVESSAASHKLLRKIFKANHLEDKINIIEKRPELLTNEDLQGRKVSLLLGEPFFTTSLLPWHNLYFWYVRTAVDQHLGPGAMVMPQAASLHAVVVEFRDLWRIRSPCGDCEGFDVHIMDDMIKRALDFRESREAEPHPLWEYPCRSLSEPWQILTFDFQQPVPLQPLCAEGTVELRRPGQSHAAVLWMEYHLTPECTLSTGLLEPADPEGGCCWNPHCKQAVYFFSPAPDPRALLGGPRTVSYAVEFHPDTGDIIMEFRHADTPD
# experimental protocol: Inhibition of human PRMT7 using GST-GAR as substrate and SAM as cofactor by radiometric HotSpot assay
# value in µM; strip the unit string

{"smiles notation": "N=C(N)NCCC[C@H](N)C(=O)NCC(=O)N[C@@H](CCCN)C(=O)N[C@@H](CCCNC(=N)NCCCSC[C@H]1O[C@@H](n2cnc3c(N)ncnc32)[C@H](O)[C@@H]1O)C(=O)O", "IC50 [µM]": 8.3}

Then this molecule:
Specify IC50 for N=C(NCCSC[C@H]1O[C@@H](n2cnc3c(N)ncnc32)[C@H](O)[C@@H]1O)Nc1ccccc1 and stop.
2.4

###

# system under test: Histone-arginine methyltransferase CARM1 (Homo sapiens)
# experimental protocol: Inhibition of human PRMT4 using histone H3 as substrate and SAM as cofactor at 10 uM by radiometric HotSpot assay relative to control
Calls of active or inactive are those of the source. No cut-off for these calls is given here.
observation type: inhibition

{"smiles notation": "N=C(NCCCSC[C@H]1O[C@@H](n2cnc3c(NCCCc4ccccc4)ncnc32)[C@H](O)[C@@H]1O)NC1CCCCC1", "system under test": "Histone-arginine methyltransferase CARM1 (Homo sapiens)", "observation type": "inhibition", "readout value": "Active"}
{"smiles notation": "N=C(NCCCSC[C@H]1O[C@@H](n2cnc3c(NCCCc4ccccc4)ncnc32)[C@H](O)[C@@H]1O)NCC1CC1", "system under test": "Histone-arginine methyltransferase CARM1 (Homo sapiens)", "observation type": "inhibition", "readout value": "Active"}
{"smiles notation": "Nc1ncnc2c1ncn2[C@@H]1O[C@H](CSCCNCc2cccc(-c3cccc(F)c3)c2)[C@@H](O)[C@H]1O", "system under test": "Histone-arginine methyltransferase CARM1 (Homo sapiens)", "observation type": "inhibition", "readout value": "> 90%"}
{"smiles notation": "Nc1ncnc2c1ncn2[C@@H]1O[C@H](CSCCCNCc2cccc(-c3cccc(F)c3)c2)[C@@H](O)[C@H]1O", "system under test": "Histone-arginine methyltransferase CARM1 (Homo sapiens)", "observation type": "inhibition", "readout value": "> 90%"}
